Kindly state Monomer (%) for each of the entries shown.
assay: Accelerated stability screening monitored by SEC; type: physicochemical; settings: SEC, 7 days storage at 50° C.
Respond numerically; units are % and should not be typed.

May I ask what Monomer (%) has been recorded for Hu2B5.4: humanized 2B5-8.0; VH SEQ ID NO 66, VL SEQ ID NO 67 (antibody, V domains shown) VH: EVQLVQSGAEVKKPGASVKVSCKASGYTFTKYWLGWVRQAPGQGLEWIGDIYPGYDYTHYNEKFKDRATLTVDTSTSTAYMELSSLRSDDTAVYYCARSDGSSTYWGQGTLVTVSS VL: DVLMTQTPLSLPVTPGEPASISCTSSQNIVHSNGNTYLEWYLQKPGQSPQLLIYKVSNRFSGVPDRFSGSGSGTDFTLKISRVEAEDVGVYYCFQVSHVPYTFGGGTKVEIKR ?
91.2889

# repeat for Hu2B5.8: humanized 2B5-8.0; VH SEQ ID NO 74, VL SEQ ID NO 75 (antibody, V domains shown) VH: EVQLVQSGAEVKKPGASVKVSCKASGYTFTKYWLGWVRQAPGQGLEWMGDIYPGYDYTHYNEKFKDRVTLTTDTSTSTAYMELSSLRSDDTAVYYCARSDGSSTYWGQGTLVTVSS VL: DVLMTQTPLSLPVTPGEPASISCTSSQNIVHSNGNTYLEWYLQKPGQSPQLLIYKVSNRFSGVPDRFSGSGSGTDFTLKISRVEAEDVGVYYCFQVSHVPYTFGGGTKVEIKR
93.3016
